# Subject of test: Fuc(a1-2)Gal(b1-3)GalNAc(b1-3)Gal
# Method summary: glycan array binding signal (z-score within array); higher = stronger binding
# Run conditions: glycan notation: IUPAC condensed, linker removed
The entries come from a sample that favours the strongest signals as a whole.
Property label: glycan array binding signal (z-score)

>>> result("FimA-N3 (Actinomyces oris) (protein) MHHHHHHSSGVDLGTENLYFQSNAGLQGAQFQLYKAKNAYANTCSNEKEGAPIAINGQTTLTTDAQGAIDIKGLFISDSIDGADRDNQVNAMERCYVLVETKAPAGYVLPAGNGAATPVKVKAGEETTDN")
5.62
>>> result("Epa3to2 (Candida glabrata) (protein) MGSSHHHHHHSSGLVPRGSHMKRELSSQNPFGYPIGCSPQDVAIIPGLTMELYSYPIVSGTPPNCYDASYVDPEYPRTGYLKRKMVGKSTGVTGNLNYKYSVEKACMVKYGNLPAGYNYNEPLTVSNFTMILYGYFKAQTTGLHTFFVNADDLLYINFGAGNAFDCCKREDSKTKLGEYVAYDIWHVDSSKNKVSLFLEKDLYYPIRMFFNNRDNNSSLDLSFSVNGATDQISDFSGYLYSVPDQPDTCPAHIGYDTTCR")
3.03
>>> result("3FTT (Staphylococcus aureus), Q5HCZ5 (protein) MTEKEKMLAEKWYDANFDQYLINERARAKDICFELNHTRPSATNKRKELIDQLFQTTTDNVSISIPFDTDYGWNVKLGKNVYVNTNCYFMDGGQITIGDNVFIGPNCGFYTATHPLNFHHRNEGFEKAGPIHIGSNTWFGGHVAVLPGVTIGEGSVIGAGSVVTKDIPPHSLAVGNPCKVVRKIDNDLPSETLNDETIK")
1.06
